Every entry's value here was drawn from patent US20220298237A1.

Biological target: T1, human aquaporin 3 (AQP3) on cells (human, UniProt Q92482 1-292)
T1 construct: whole, on cells; Water channel membrane protein; also called human AQP3; AQP3 on HaCaT cells
T1 sequence (looked up): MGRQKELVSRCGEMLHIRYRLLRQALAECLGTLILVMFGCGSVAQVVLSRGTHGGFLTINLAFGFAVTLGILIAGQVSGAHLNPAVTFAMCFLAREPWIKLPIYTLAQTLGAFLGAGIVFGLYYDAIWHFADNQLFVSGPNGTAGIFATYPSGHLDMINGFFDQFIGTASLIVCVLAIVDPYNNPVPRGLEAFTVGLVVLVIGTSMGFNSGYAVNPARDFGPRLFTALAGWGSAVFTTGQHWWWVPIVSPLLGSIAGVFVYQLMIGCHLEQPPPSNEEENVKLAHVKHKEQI
Experiment: fluorescence binding assay on HaCaT cells, 10 µg/mL (FIG. 5C)

{"binder": "Antibody D (antibody, mouse IgG2a, kappa, V domains shown, also called anti AQP3 antibody D) VH: EVQLQQSGAELVRPGASVTLSCKASGYTFTDYEMHWVQQTPVHGLEWIGGIDPETGGTGYNQKFKGKAILTADKSSSTAYMELRSLTSEDSAVYFCTRHGSYAMDYWGQGTSVTVSS VL: DIVMTQSPKFMSTSVGDRVSITCKASQDVSTAVAWYQQKPGQSPKLLIYWASTRHTGVPDRFTGSGSGTDYTLTISSVQAEDLALYYCQQHYSTPPTFGGGTRLEIKR", "binding result": "binds"}
{"binder": "Antibody E (antibody, mouse IgG2a, kappa, V domains shown, also called anti AQP3 antibody E; Antiboy E) VH: EVKLLESGAELVRPGASVTLSCKASGYTFTDYEMHWVKQTPVHGLEWIGGIDPESGGTGYNQKFKGKAILTADKSSSTAYMELRSLTSEDSAVYFCTRSGYYGSPLLDYWGQGTTLTVSS VL: QIVLSQSPAIMSASLGERVTMTCTASSSVSSSYLHWYQQKPGSSPKLWIYSTSNLASGVPARFSGSGSGTSYSLTISSMEAEDAATYYCHQYHRSPPTFGAGTKLEIKR", "binding result": "binds"}
